Every entry's value here was drawn from the supplement of paper PMC12420376.

Would you mind telling me the reported drug sensitivity score of each entry?
tested on: OVCAR8; experiment: drug sensitivity score (DSS2) on cancer cell count; higher = more sensitive; extreme values may be limits of the assay; settings: co-cultured fibroblast: WI38; 72 h
Give bare numbers, in DSS.

The examples below pair each entry with its known result.
{"compound": "CC(C)C(=O)Nc1ccc([N+](=O)[O-])c(C(F)(F)F)c1 [Flutamide]", "result-unit": "DSS", "drug sensitivity score": 0}
{"compound": "CC(=O)Nc1ccc(C(=O)Nc2ccccc2N)cc1", "result-unit": "DSS", "drug sensitivity score": 0}
{"compound": "C[C@]1(c2nc3c(C(N)=O)cccc3[nH]2)CCCN1", "result-unit": "DSS", "drug sensitivity score": 3.1}
{"compound": "Nc1nc2cc(-c3ccc4ncc(C(=O)N5CCOCC5)n4c3)ccc2o1", "result-unit": "DSS", "drug sensitivity score": 0}
{"compound": "C[C@@H](C(=O)O)c1ccc(-c2ccccc2)c(F)c1", "result-unit": "DSS", "drug sensitivity score": 0}
{"compound": "CC(=O)O[C@]1(C(C)=O)CC[C@H]2[C@@H]3C=C(C)C4=CC(=O)CC[C@]4(C)[C@H]3CC[C@@]21C [Megestrol acetate]", "result-unit": "DSS", "drug sensitivity score": 0}

For every item in the list below, what is its measured drug sensitivity score?
1. Cc1cccc(CC(=O)N2CCc3c2ccc(-c2cn(C)c4ncnc(N)c24)c3F)n1
2. Cc1ccc(F)c(NC(=O)Nc2ccc(-c3cccc4[nH]nc(N)c34)cc2)c1
3. O=C(O)CCCCC(CCSCc1ccccc1)SCc1ccccc1 (centres undefined)

1. 0
2. 0
3. 1.3

* * *

test system: KURAMOCHI; test: drug sensitivity score (DSS2) on cancer cell count; higher = more sensitive; extreme values may be limits of the assay; details: co-cultured fibroblast: WI38; 72 h
assay-readout: drug sensitivity score (DSS)
One number for each entry, in DSS.

For orientation, consider the following solved cases.
{"compound": "Nc1nc(F)nc2c1ncn2[C@@H]1O[C@H](CO)[C@@H](O)[C@@H]1O [Fludarabine]", "assay-readout": "drug sensitivity score", "result-unit": "DSS", "observed-value": 4.5}
{"compound": "O=C(O)C(=O)O.[NH-][C@@H]1CCCC[C@H]1[NH-].[Pt+2] [Oxaliplatin]", "assay-readout": "drug sensitivity score", "result-unit": "DSS", "observed-value": 16}
{"compound": "c1cn2cc(-c3ccc4cn[nH]c4c3)nc(Nc3ccc(N4CCOCC4)cc3)c2n1 [Entospletinib]", "assay-readout": "drug sensitivity score", "result-unit": "DSS", "observed-value": 1.4}

Could you now consider this next compound?
Name the reported drug sensitivity score value associated with the compound CC(=O)OC[C@H]1O[C@@H]([S-])[C@H](OC(C)=O)[C@@H](OC(C)=O)[C@@H]1OC(C)=O.CCP(CC)CC.[Au+] [Auranofin]
7

* * *

system: KURAMOCHI; test: drug sensitivity score (DSS2) on cancer cell count; higher = more sensitive; extreme values may be limits of the assay; details: co-cultured fibroblast: BJHTERT; 72 h
assay-readout: drug sensitivity score (DSS)
Answers are plain numbers, in DSS.

{"molecule": "COCC1(CO)C(=O)C2CCN1CC2 (stereo not drawn)", "result-unit": "DSS", "drug sensitivity score": 0}
{"molecule": "CCC(C)n1ncn(-c2ccc(N3CCN(c4ccc(OCC5COC(Cn6cncn6)(c6ccc(Cl)cc6Cl)O5)cc4)CC3)cc2)c1=O (stereo not drawn)", "result-unit": "DSS", "drug sensitivity score": 0}
{"molecule": "C=CC(=O)Nc1cc2c(Nc3ccc(F)c(Cl)c3)ncnc2cc1OCCCN1CCOCC1", "result-unit": "DSS", "drug sensitivity score": 9.4}
{"molecule": "Clc1ccc(Nc2nnc(Cc3ccncc3)c3ccccc23)cc1", "result-unit": "DSS", "drug sensitivity score": 0}

Would you mind listing drug sensitivity score for each of the following molecules?
1. CC[C@@](C)(Nc1ccnc(-c2c[nH]c3ncccc23)n1)C(=O)NCC(F)(F)F
2. Cc1ccc(NC(=O)c2ccc(CN3CC[C@H](N(C)C)C3)c(C(F)(F)F)c2)cc1Nc1nccc(-c2cncnc2)n1
3. C[C@H]1CNCCCN1S(=O)(=O)c1cccc2cncc(F)c12

0
0.1
1.8

// each molecule listed below needs its drug sensitivity score
1. Cc1[nH]c2ccccc2c1CCNCc1ccc(/C=C/C(=O)NO)cc1
2. COc1cc(CCc2cc(NC(=O)c3ccc(N4CC(C)NC(C)C4)cc3)n[nH]2)cc(OC)c1 (stereo not drawn)
3. COc1cc2ncnc(Oc3cccc(NC(=O)Nc4cc(C(C)(C)C(F)(F)F)on4)c3)c2cc1OC
4. CC(=O)c1c(C)c2cnc(Nc3ccc(N4CCNCC4)cn3)nc2n(C2CCCC2)c1=O
5. C[C@@H]1CCN(C(=O)CC#N)C[C@@H]1N(C)c1ncnc2[nH]ccc12
6. N[C@@H]1CCCN(c2c(/C=C3\SC(=O)NC3=O)cccc2-c2ccccc2)C1

1. 14.8
2. 0
3. 0
4. 6.2
5. 0
6. 0

Okay, here is my list. What is drug sensitivity score for each of these?
1. CC1(COc2ccc3c(c2)ncn3-c2ccc3cccc(N4CCC(N)CC4)c3n2)COC1
2. C=CC(=O)Nc1cccc(Nc2nc(Nc3ccc(OCCOC)cc3)ncc2F)c1
3. NCC(=O)Nc1ccc(-n2nc(C(F)(F)F)cc2-c2ccc3c(ccc4ccccc43)c2)cc1
4. O=C(Nc1nc2cccc(-c3ccc(CN4CCS(=O)(=O)CC4)cc3)n2n1)C1CC1
5. Cc1cc(-c2nc(-c3ccc(OC(F)(F)F)cc3)no2)nn1Cc1ccnc(N2CCN(C3CC3)CC2)c1
6. Cc1cc(C(C)Nc2ccccc2)c2nc(N3CCOCC3)cc(=O)n2c1 (stereo not drawn)
7. CCCS(=O)(=O)Nc1ccc(F)c(C(=O)c2c[nH]c3ncc(-c4ccc(Cl)cc4)cc23)c1F
8. CC(C)C[C@H](NC(=O)[C@H](CCc1ccccc1)NC(=O)CN1CCOCC1)C(=O)N[C@@H](Cc1ccccc1)C(=O)N[C@@H](CC(C)C)C(=O)[C@@]1(C)CO1

12.6
0
2.6
5.1
7.6
7.7
0
21.8
